Molecular target: T1, human TREML1 ECD (human, UniProt Q86YW5 16-162)
T1 construct: Any tags are not described; also called soluble TREML1; soluble TLT1
T1 sequence: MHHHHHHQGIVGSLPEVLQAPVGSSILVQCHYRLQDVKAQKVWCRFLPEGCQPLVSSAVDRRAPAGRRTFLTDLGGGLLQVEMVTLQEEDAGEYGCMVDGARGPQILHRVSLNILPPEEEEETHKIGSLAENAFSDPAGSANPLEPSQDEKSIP
Assay: solid phase binding assay (ELISA), antigen coated
Assignment: determine reported EC50 for the given binders.
Answers without a unit are incomplete; give the number and then its unit.

Take a look at these entries with their results.
binder | EC50
Anti-TREML1 Antibody Clone 23F10 (antibody, V domains shown, It was detected with anti-mouse IgG) VH: EVQLQQSGPELVRPGASVKVSCKASGYIFTDYVIHWVKQKPGQGLEWFGYINPYTGGPKYSETARGKATLTSDSSSNTAYMVLTSLTSDDSAVYYCTRDFNYYVGAMDFWGQGTSVTVSS VL: AAVLTQTPLSLPVSLGDQASISCRSTQSLVHSNGNTYVHWYLQKAGQSPKLLIYKVSNRFSGVPDRFSGSGSGTDFTLKISRVEAEDLGVYFCSQSTYVWTFGGGTKLEIE | 270 pM
Anti-TREML1 Antibody Clone 28A9 (antibody, V domains shown, It was detected with anti-mouse IgG) VH: EVQLQQSGPELVKPGASVKMSCKASGYTFTNYVMHWVKQKPGQGLEWIGYFNPYNGHAKYSEKFTGKATLTSDRSSSTAYMELNSLTSEDSAVYYCTRDFNYYVGAMDYWGQGTSVTVSS VL: DVVMTQSPLSLPVNLGDHASISCRSSQSLIHSNGNTYLHWYLQKPGQSPKLLVYQVSKRFSGVPDRFSGSGSGTDFTLKISRVEAEDLGVYFCSQSTHIWTFGGGTTLEIK | 300 pM

# EC50 (binder: Anti-TREML1 Antibody Clone 26A6 (antibody, V domains shown, It was detected with anti-mouse IgG, so it is a mouse antibody) VH: EVKLVESGGGLVQPGGSRKLSCAASGFTFSDYGMAWVRQAPGKGPEWIAFISNLAYRIYYADTVTGRFTISRENAKNTLYLEMSSLRSEDSAIYYCVREDYGNNGAMDYWGQGTSVTVSS VL: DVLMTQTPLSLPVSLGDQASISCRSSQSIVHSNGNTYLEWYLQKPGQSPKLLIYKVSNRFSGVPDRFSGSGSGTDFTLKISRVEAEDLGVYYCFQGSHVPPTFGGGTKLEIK ) is 320 pM
